# credit: PubChem BioAssay AID1159580

# Test Details: chemical genetic growth profiling, strain panel (AID 1159580);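 also: tested at 20 µM; growth read once vehicle control cultures reached saturation at 30 °C; lower values mean less growth of the strain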
# Condition: S. cerevisiae deletion strains, growth OD, locus YEL037C, strain rad23
Screen size: about 5,500 compounds; about 2,000 (36%) were called active. Another 18% or so got no clear call; they are omitted. Rule as the data show it: active = normalized growth mostly below about 0.91 (no sharp cut-off); inconclusive = no clear call, values can overlap the other calls; inactive = mostly above about 0.92. This is one part of the list.
Would you mind answering with one of these outcomes? active, inactive

Use the examples below as a reference point.
# Compound, Cat
data = [
    ("Clc1ccc(CSC(Cn2ccnc2)c2ccc(Cl)cc2Cl)cc1 (configuration not stated)", "active"),
    ("NCCCCC(=O)O", "inactive"),
]

Per the assay record, what outcome was assigned to COC1C=CC23c4cc5c(cc4CN(CC2O)[C@@H]3C1)OCO5 (some centres not stated) ? inactive

How about this compound: `Cc1nnc(NS(=O)(=O)c2ccc(N)cc2)s1` inactive

What do we get for COC(=O)[C@@H]1OC(=O)C2OC23[C@@]1(C)CCC1[C@@]2(C)CCC(=O)C(C)(C)C2C[C@@H](OC(C)=O)[C@]13C (some centres not stated) ? inactive
